MEASUREMENT TARGET: Thrombin and coagulation factor X (Homo sapiens) (UniProt P00734+P00742)
Sequence (P00742 whole entry, looked up, other chains not shown): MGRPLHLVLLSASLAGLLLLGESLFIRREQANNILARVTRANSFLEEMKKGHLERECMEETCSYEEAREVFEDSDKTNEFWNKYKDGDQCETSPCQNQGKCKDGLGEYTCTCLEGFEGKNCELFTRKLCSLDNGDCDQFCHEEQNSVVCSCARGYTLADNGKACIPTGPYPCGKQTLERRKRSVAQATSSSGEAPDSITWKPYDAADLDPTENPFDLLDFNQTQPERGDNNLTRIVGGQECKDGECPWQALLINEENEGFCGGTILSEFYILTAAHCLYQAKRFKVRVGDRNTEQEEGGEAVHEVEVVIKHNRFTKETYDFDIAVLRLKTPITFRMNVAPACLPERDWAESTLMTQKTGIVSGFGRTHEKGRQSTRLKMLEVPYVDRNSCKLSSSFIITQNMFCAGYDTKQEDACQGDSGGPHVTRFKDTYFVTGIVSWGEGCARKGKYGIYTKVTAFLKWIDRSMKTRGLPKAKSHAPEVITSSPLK
ASSAY COMMENT: Selectivity ratio for binding to factor Xa (Ki) and thrombin (Ki)
Format: protein assay
The following molecules are shown together with reported Ratio values.
ASSAY READOUT: Ratio

MOLECULE: Cc1cc(C)cc(C(C)(C)CN(CC(=O)NC(CCCCN)B(O)O)C(=O)CCc2ccccc2)c1 (stereo unspecified)
ASSAY READOUT: Ratio
TEST VALUE: 1980
//
MOLECULE: CC(C)(CN(CC(=O)NC(CCCN=C(N)N)B(O)O)C(=O)CCc1ccccc1)c1ccccc1 (stereo unspecified)
ASSAY READOUT: Ratio
TEST VALUE: 1650
//
MOLECULE: Cc1cc(C)cc(C(C)(C)CN(CC(=O)NC(CCC/N=C/N)B(O)O)C(=O)CCc2ccccc2)c1 (stereo unspecified)
ASSAY READOUT: Ratio
TEST VALUE: 740
//
MOLECULE: Cc1cc(C)cc(CCN(CC(=O)NC(CCCCN)B(O)O)C(=O)CCc2ccccc2)c1 (stereo unspecified)
ASSAY READOUT: Ratio
TEST VALUE: 193
//
MOLECULE: CC(C)(CN(CC(=O)NC(CCC/N=C/N)B(O)O)C(=O)CCc1ccccc1)c1ccccc1 (stereo unspecified)
ASSAY READOUT: Ratio
TEST VALUE: 67
//
MOLECULE: NCCCCC(NC(=O)CN(CCc1ccccc1)C(=O)CCc1ccccc1)B(O)O (stereo unspecified)
ASSAY READOUT: Ratio
TEST VALUE: 310
//
MOLECULE: Cc1cc(C)cc(CCN(CC(=O)NC(CCC/N=C/N)B(O)O)C(=O)CCc2ccccc2)c1 (stereo unspecified)
ASSAY READOUT: Ratio
TEST VALUE: 81
//
MOLECULE: N=C(N)NCCCC(NC(=O)CN(CC1(c2ccccc2)CC1)C(=O)CCc1ccccc1)B(O)O (stereo unspecified)
ASSAY READOUT: Ratio
TEST VALUE: 767
//
MOLECULE: N/C=N/CCCC(NC(=O)CN(CC1(c2ccccc2)CCCC1)C(=O)CCc1ccccc1)B(O)O (stereo unspecified)
ASSAY READOUT: Ratio
TEST VALUE: 210
//
MOLECULE: NCCCCC(NC(=O)CN(CC1(c2ccccc2)CCCC1)C(=O)CCc1ccccc1)B(O)O (stereo unspecified)
ASSAY READOUT: Ratio
TEST VALUE: 579
//
MOLECULE: N/C=N/CCCC(NC(=O)CN(CC1(c2ccccc2)CC1)C(=O)CCc1ccccc1)B(O)O (stereo unspecified)
ASSAY READOUT: Ratio
TEST VALUE: 361

----------
ASSAY COMMENT: Selectivity ratio for binding to factor I (IC50) and thrombin (Ki)
ASSAY READOUT: Ratio

MOLECULE: Cc1cc(C)cc(CCN(CC(=O)NC(CCCN=C(N)N)B(O)O)C(=O)CCc2ccccc2)c1 (stereo not given)
ASSAY READOUT: Ratio
RELATION QUALIFIER: <
TEST VALUE: 69

MOLECULE: N/C=N/CCCC(NC(=O)CN(CCc1ccccc1)C(=O)CCc1ccccc1)B(O)O (stereo not given)
ASSAY READOUT: Ratio
RELATION QUALIFIER: =
TEST VALUE: 3070

MOLECULE: N/C=N/CCCC(NC(=O)CN(CC1(c2ccccc2)CC1)C(=O)CCc1ccccc1)B(O)O (stereo not given)
ASSAY READOUT: Ratio
RELATION QUALIFIER: =
TEST VALUE: 9280

MOLECULE: CC(C)(CN(CC(=O)NC(CCCCN)B(O)O)C(=O)CCc1ccccc1)c1ccccc1 (stereo not given)
ASSAY READOUT: Ratio
RELATION QUALIFIER: =
TEST VALUE: 3610

MOLECULE: Cc1cc(C)cc(C(C)(C)CN(CC(=O)NC(CCC/N=C/N)B(O)O)C(=O)CCc2ccccc2)c1 (stereo not given)
ASSAY READOUT: Ratio
RELATION QUALIFIER: =
TEST VALUE: 4510
